Test system: T47D wild-type breast cancer cells
ASSAY_COMMENT: xCELLigence real-time killing assay (impedance)
Type: cell-based, human
CONDITION_CONTEXT: after 120 hours
OBSERVATION_TYPE: concentration showing potent / effective / comparable killing (nM)

MOLECULE	UNIT_SPEC	REPORTED_RESULT
MNC2-Deruxtecan (conjugate) VH: EVQLVESGGGLVKPGGSLRLSCAASGFTFSGYAMSWVRQAPGKGLEWVSTISSGGTYIYYPDSVKGRFTISRDNAKNSLYLQMNSLRAEDTAVYYCARLGGDNYYEYFDVWGKGTTVTVSS VL: DIVLTQSPASLAVSPGQRATITCRASKSVSTSGYSYMHWYQQKPGQPPKLLIYLASNLESGVPARFSGSGSGTDFTLTINPVEANDTANYYCQHSRELPFTFGGGTKVEIKRT	nM	167
MN20A10-Deruxtecan (conjugate) VH: QVQLVESGGGLVKPGGSLRLSCAASGFTFSTYAMSWIRQAPGKGLEWVASIGRAGSTYYSDSVKGRFTISRDNAKNSLYLQMNSLRAEDTAVYYCARGPIYNDYDEFAYWGQGTLVTVSS VL: EIVLTQSPATLSLSPGERATLSCKSSQSVLYSSNQKNYLAWYQQKPGQAPRLLIYWASTRESGIPARFSGSGSGTDFTLTISSLEPEDFAVYYCHQYLSSLTFGGGTKVEIKR	nM	167
MNC2-MMAF (conjugate) VH: EVQLVESGGGLVKPGGSLRLSCAASGFTFSGYAMSWVRQAPGKGLEWVSTISSGGTYIYYPDSVKGRFTISRDNAKNSLYLQMNSLRAEDTAVYYCARLGGDNYYEYFDVWGKGTTVTVSS VL: DIVLTQSPASLAVSPGQRATITCRASKSVSTSGYSYMHWYQQKPGQPPKLLIYLASNLESGVPARFSGSGSGTDFTLTINPVEANDTANYYCQHSRELPFTFGGGTKVEIKRT	nM	167
